Tested on: ischemic heart isolated from white rat
assay.info: Cardioprotective effect on isolated ischemic rat heart (Langendorff, 30 min global ischemia / 30 min reperfusion)
settings: 10 μM; after 30 min reperfusion
readout: LDH (concentration of lactate dehydogenase) (unit/g)
Give a bare numeral; the unit unit/g is implied.

Recorded LDH (concentration of lactate dehydogenase), per entry:
# chemical.smiles, quantity.unit, quantitative.result
records = [
    ("COC(OC)[C@]1(C)Oc2ccc([N+](=O)[O-])cc2[C@H](n2c(=S)oc3cc([N+](=O)[O-])ccc32)[C@H]1O", "unit/g", 30.1),
    ("COC(OC)[C@]1(C)Oc2ccc(N)cc2[C@@H](n2c(=S)oc3ccccc32)[C@@H]1O", "unit/g", 3.9),
]

Given `COC(OC)[C@]1(C)Oc2ccc([N+](=O)[O-])cc2[C@@H](n2c(=S)oc3ccccc32)[C@@H]1O` , respond with its LDH (concentration of lactate dehydogenase). 17.9
